Test system: TO-3-N3-2 (biotin conjugate)
MEASUREMENT PROTOCOL: pull-down binding Z-score (relative to library population); higher = stronger binding
PARTICULARS: RNA library: Library-2
Below, each of the sequences is paired with its reported pull-down binding Z-score value.
MEASUREMENT KIND: pull-down binding Z-score

| QUERY SEQUENCE | TARGET OR SYSTEM | TEST VALUE |
| --- | --- | --- |
| AAUUAUGAAGAUUUACUCAUUCGUAAGUCUAAUCAUAAUU | TO-3-N3-2 (biotin conjugate) | -0.3 |
| AUUAGAGAAAACAACAGAGUUGUUAUUUCUAGU [DMSMaPseq_invitro_SARS-CoV-2_Motif_378] | TO-3-N3-2 (biotin conjugate) | -0.0987 |
| AUCAGUUCUCAUUUUACACACUGGC [hsa-mir-24-1] | TO-3-N3-2 (biotin conjugate) | -0.0568 |
| CUCGUCUCUACAAAAAAUUGAGACAGG [hsa-mir-4512] | TO-3-N3-2 (biotin conjugate) | -0.15 |
| UACAUGUGUUGGUAGCGAUAAUGUUACUGACUUUAAUGCAAUUGCAACAUGUG [DMSMaPseq_invitro_SARS-CoV-2_Multi_49_ComplexLevel_1] | TO-3-N3-2 (biotin conjugate) | 0.0202 |
| CUAAUAACACUAAAGGUUCAUUGCCUAUUAAUGUUAUAG | TO-3-N3-2 (biotin conjugate) | -0.0592 |
| GGGGCCUGUGGUCCC [hsa-mir-1268a] | TO-3-N3-2 (biotin conjugate) | -0.144 |
| UGCUAUUACUUGUAUUUAUUUGUAAUGCA [hsa-mir-548ab] | TO-3-N3-2 (biotin conjugate) | -0.88 |
| UAGAGUGCUAUCUA [SHAPE_invitro_SARS-CoV-2_Motif_352] | TO-3-N3-2 (biotin conjugate) | -0.553 |
| AUGAGUACGAACUUAUGUACUCAU | TO-3-N3-2 (biotin conjugate) | -0.43 |
| CUGACUUAACAAAGCCUUACAUUAAGUGGGAUUUGUUAAAAUAUGACUUCACGGAAGAGAGGUUAAAACUCUUUGACCGUUAUUUUAAAUAUUGG | TO-3-N3-2 (biotin conjugate) | -0.143 |
| ACUUUCUGGUGCCAGAAUGAAAGU [hsa-mir-512-2_512-1] | TO-3-N3-2 (biotin conjugate) | -0.218 |
| AUAGUUGUGGGGUAGUGAUUUUACCCUGUUCAGGAGAUAACUAU [hsa-let-7f-1] | TO-3-N3-2 (biotin conjugate) | 0.657 |
| AAGUUCCCUCUGGCUGGAAC [hsa-mir-1249] | TO-3-N3-2 (biotin conjugate) | -0.021 |
| AGCUUCUUUAUAAGAAGAGGAAACU [hsa-mir-3923] | TO-3-N3-2 (biotin conjugate) | 0.00803 |
| GGUAGGUUACGUCAUGCUGUUCUACC [hsa-mir-140] | TO-3-N3-2 (biotin conjugate) | -0.139 |
| GGCCGGUCAGGCA [hsa-mir-4689] | TO-3-N3-2 (biotin conjugate) | -0.106 |
| AUUCAGACUCAGGU [hsa-mir-921] | TO-3-N3-2 (biotin conjugate) | -0.0856 |
| CUAAGUCACUAACUGAGAAUAAAUAUUCUCAAUUAGAUGAAGAG | TO-3-N3-2 (biotin conjugate) | -0.135 |
| AGUGAGCUGAGAUCACGCAACU [hsa-mir-1273f] | TO-3-N3-2 (biotin conjugate) | 0.00609 |
| ACUUUCACCAGAGAGCAGAAAGU [hsa-mir-371b] | TO-3-N3-2 (biotin conjugate) | -0.564 |
| CAACAAAAGUUG [SHAPE_invivo_SARS-CoV-2_Motif_413] | TO-3-N3-2 (biotin conjugate) | -0.787 |
| CCAAAGAAACUUUUUUGG [hsa-mir-6079] | TO-3-N3-2 (biotin conjugate) | -0.557 |
| AACUUUAGCUUGUUUUGUGCUUGCUGCUGUU | TO-3-N3-2 (biotin conjugate) | -0.0892 |
| AAAUUGCCGAUAAGUAUGUCCGCAAUUU | TO-3-N3-2 (biotin conjugate) | -0.436 |
| CUGUGGUUUGCUGGCUGCCUCAG [hsa-mir-6736] | TO-3-N3-2 (biotin conjugate) | -0.353 |
| UUUCUCUUGUCUAAAAGAAAAGAAA [hsa-mir-518f] | TO-3-N3-2 (biotin conjugate) | -0.281 |
| UGAAGGUCACCAUGUUCUCCUUG [hsa-mir-3187] | TO-3-N3-2 (biotin conjugate) | -0.354 |

These measurements were taken from the supplement of paper PMC11865577.
